Target: Cry2 PHR (L348F)-p65AD-NLSx2 fusion construct as released from the TetR (I194T, 1-206)-CIB1 (-NLS)-T2A-Cry2 PHR (L348F)-p65AD-NLSx2 fusion construct
Sequence (Q96524 other isoform, or with tags, fused parts or gaps L348F I194T L348F L348F I194T L348F): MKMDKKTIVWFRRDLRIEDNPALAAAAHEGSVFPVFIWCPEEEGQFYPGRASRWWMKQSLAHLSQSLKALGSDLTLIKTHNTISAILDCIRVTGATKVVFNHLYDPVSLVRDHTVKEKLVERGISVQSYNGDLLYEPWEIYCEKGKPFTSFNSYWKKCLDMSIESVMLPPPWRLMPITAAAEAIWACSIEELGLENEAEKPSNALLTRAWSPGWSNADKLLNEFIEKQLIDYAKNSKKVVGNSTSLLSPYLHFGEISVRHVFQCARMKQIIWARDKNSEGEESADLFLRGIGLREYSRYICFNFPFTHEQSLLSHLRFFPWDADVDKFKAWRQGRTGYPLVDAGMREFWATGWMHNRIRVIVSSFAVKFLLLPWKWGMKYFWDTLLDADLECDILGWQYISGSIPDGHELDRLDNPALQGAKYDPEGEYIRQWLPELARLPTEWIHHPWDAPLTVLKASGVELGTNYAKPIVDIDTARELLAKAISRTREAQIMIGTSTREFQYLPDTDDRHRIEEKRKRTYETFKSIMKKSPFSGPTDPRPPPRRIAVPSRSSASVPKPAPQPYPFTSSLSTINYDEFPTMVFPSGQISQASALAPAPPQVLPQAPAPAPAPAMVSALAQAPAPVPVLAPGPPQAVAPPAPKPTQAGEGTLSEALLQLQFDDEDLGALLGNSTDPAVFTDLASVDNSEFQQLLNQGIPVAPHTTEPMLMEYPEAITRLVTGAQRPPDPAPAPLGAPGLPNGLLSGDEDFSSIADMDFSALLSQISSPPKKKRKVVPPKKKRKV
Experiment: cell-based or functional assay
// reported Ub-ELuc luciferase, Light, Dox 75 ng/mL per item
OBSERVATION_TYPE: Ub-ELuc luciferase, Light, Dox 75 ng/mL (relative)

| BINDER | OBSERVATION_TYPE | UNIT_ABBREV | MEASURED_RESULT |
| --- | --- | --- | --- |
| rTetR (I194T, M2 mutation, 1-206)-CIB1 (-NLS) from the T2A construct (protein, part only; not given: Leftover T2A residues, part only) chain, part: MARLDKSKVINGALELLNGVGIEGLTTRKLAQKLGVEQPTLYWHVKNKRALLDALPIEMLDRHHTHFCPLEGESWQDFLRNNAKSFRCALLSHRDGAKVHLGTRPTEKQYETLENQLAFLCQQGFSLENALYALSAVGHFTLGCVLEEQEHQVAKEERETPTTDSMPPLLRQAIELFDRQGAEPAFLFGLELITCGLEKQLKCESGSPKKKHMEFNGAIGGDLLLNFPDMSVLERQRAHLKYLNPTFDSPLAGFFADSSMITGGEMDSYLSTAGLNLPMMYGETTVEGDSRLSISPETTLGTGNFKAAKFDTETKDCNEAAKKMTMNRDDLVEEGEEEKSKITEQNNGSTKSIKKMKHKAKKEENNFSNDSSKVTKELEKTDYI | Ub-ELuc luciferase, Light, Dox 75 ng/mL | relative | 12.7 |
| rTetR (I194T, S2 mutation, 1-206)-CIB1 (-NLS) from the T2A construct (protein, part only; not given: Leftover T2A residues, part only) chain, part: MARLDKSKVINSALELLNGVGIEGLTTRKLAQKLGVEQPTLYWHVKNKRALLDALPIEMLDRHHTHFCPLEGESWQDFLRNNAKSFRCALLSHRDGAKVHLGTRPTEKQYETLENQLAFLCQQGFSLENALYALSAVGHFTLGCVLEEQEHQVAKEERETPTTDSMPPLLRQAIELFDRQGAEPAFLFGLELITCGLEKQLKCESGSPKKKHMEFNGAIGGDLLLNFPDMSVLERQRAHLKYLNPTFDSPLAGFFADSSMITGGEMDSYLSTAGLNLPMMYGETTVEGDSRLSISPETTLGTGNFKAAKFDTETKDCNEAAKKMTMNRDDLVEEGEEEKSKITEQNNGSTKSIKKMKHKAKKEENNFSNDSSKVTKELEKTDYI | Ub-ELuc luciferase, Light, Dox 75 ng/mL | relative | 0.7 |
